test: Active ingredient assay and recovery on storage (Table 2); format: physicochemical; conditions: 2 month storage, 0° C.
# note: boundary value 2 % w/w maps to NO; Assay (% w/w) below it maps to YES

Past entries and their recorded results:
input: Problem: For the compound CCCCCCC(C)OC(=O)COc1nc(F)c(Cl)c(N)c1Cl (centres unmarked) [Fluroxypyr, Fluroxypyr Meptyl] , is Assay (% w/w) under 2 % w/w?
output: NO

input: Problem: For the compound CCCCC(CC)COC(=O)COc1ccc(Cl)cc1C (centres unmarked) [MCPA] , is Assay (% w/w) under 2 % w/w?
output: NO

input: Problem: For the compound CCCCCC(C)OC(=O)COc1ccc(Cl)c2cccnc12 (centres unmarked) [cloquintocet, Cloquintocet Mexyl] , is Assay (% w/w) under 2 % w/w?
output: YES

input: Problem: For the compound CCCCCCCC(=O)Oc1c(Br)cc(C#N)cc1Br [Bromoxynil, Bromoxynil Octanoate] , is Assay (% w/w) under 2 % w/w?
output: NO

Continuing:
input: Problem: For the compound COc1nn(C(=O)[N-]S(=O)(=O)c2ccccc2OC(F)(F)F)c(=O)n1C.[Na+] [Flucarbazone, Flucarbazone Sodium] , is Assay (% w/w) under 2 % w/w?
output: YES

Where do these numbers come from? They come from patent US11877574B2.
